- ASSAY: AUC (0 to infinity) in Sprague-Dawley rat at 2 mg/kg, po
- Type: ADME, organism-based
- Parameters: dose 2 mg/kg, route oral, time infinity
- CONDITION_SET: in vivo

LINE_NOTATION: CC(C)=CCC/C(C)=C/CCC1=C[C@H](c2ccc(C(C)(C)C)cc2)OC1=O
AUC(0-inf) (ng·h/mL): 280

----------
- ASSAY: Half life in Sprague-Dawley rat at 2 mg/kg, po
- Type: ADME, organism-based
- CONDITION_SET: in vivo
PROPERTY_LABEL: half-life (h)

LINE_NOTATION: CC(C)=CCC/C(C)=C/CCC1=C[C@H](c2ccc(C(C)(C)C)cc2)OC1=O
PROPERTY_LABEL: half-life
UNIT_LABEL: h
OBS_VALUE: 1.8
